# credit: patent US6809119B2

- system.name: rat BCAT cytosolic form (rrBCATc) (Rattus norvegicus)
- Construct: inferred from purification on a Ni-charged chelating column with imidazole elution
- Sequence (P54690 whole entry): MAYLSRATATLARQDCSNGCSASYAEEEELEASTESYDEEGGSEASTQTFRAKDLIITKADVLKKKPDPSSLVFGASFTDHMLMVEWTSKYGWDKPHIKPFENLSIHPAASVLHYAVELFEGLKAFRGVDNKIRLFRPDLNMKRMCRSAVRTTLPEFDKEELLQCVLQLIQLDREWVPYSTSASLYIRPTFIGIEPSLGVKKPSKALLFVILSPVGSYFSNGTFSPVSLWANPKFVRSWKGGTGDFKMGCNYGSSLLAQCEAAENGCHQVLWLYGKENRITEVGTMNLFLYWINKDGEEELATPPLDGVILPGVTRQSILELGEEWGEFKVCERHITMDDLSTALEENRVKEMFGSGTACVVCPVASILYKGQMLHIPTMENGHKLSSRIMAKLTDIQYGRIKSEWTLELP
- measurement.protocol: In vitro coupled enzyme assay, rat BCAT cytosolic form
- test.context: inhibition of recombinant rat BCATc; coupled glutamate dehydrogenase/NADH assay, 37° C., pH 7.8
pIC50: −log10 of the molar value.
recorded.metric: pIC50

O=C(NNS(=O)(=O)c1ccccc1)c1ccc(OCc2ccccc2)cc1: 4.32

I. O=C(NNS(=O)(=O)c1ccccc1)c1ccc(NCc2ccccc2)cc1
II. CC(C)(C)CCc1ccc(C(=O)NNS(=O)(=O)c2ccccc2)cc1
Inquiry: Hello, I am sorting some records. Could you say if I or II has the smaller pIC50 value? // caller expects the label of the chosen entry
Reply text: I
(I: 5.36, II: 6.60)

I. CC(C)(C)C#Cc1ccc(C(=O)NNS(=O)(=O)c2ccccc2)cc1
II. Cc1cccc(S(=O)(=O)NNC(=O)c2ccc(Oc3ccccc3)cc2)c1
III. O=C(NNS(=O)(=O)c1ccccc1)c1ccc(CCc2ccccc2)cc1
IV. O=C(NNS(=O)(=O)c1ccccc1C(F)(F)F)c1ccc(Oc2ccccc2)cc1
Inquiry: Rank ascending by pIC50. Write out the labels following the order that was asked for.
Reply text: I, II, IV, III
(I: 5.37, II: 5.92, IV: 6.37, III: 6.60)

P. O=C(NNS(=O)(=O)c1cccc(Br)c1)c1ccc(Oc2ccccc2)cc1
Q. O=C(NNS(=O)(=O)c1ccccc1)c1ccc(CCC2(O)CCCCC2)cc1
R. O=C(NNS(=O)(=O)c1ccccc1)c1ccc(-c2ccccc2)cc1
Inquiry: Could you please order the items by pIC50, going from the lowest number to the highest? Dear reader, please state the labels in the requested order.
Reply text: P, R, Q
(P: 5.55, R: 5.82, Q: 6.60)
